B1: TPR t1 (parent)
chain: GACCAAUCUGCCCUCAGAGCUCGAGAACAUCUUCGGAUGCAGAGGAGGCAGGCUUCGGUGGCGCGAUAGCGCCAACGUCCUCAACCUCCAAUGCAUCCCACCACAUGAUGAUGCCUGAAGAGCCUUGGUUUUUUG

Variants of: B1
Test: polymerase ribozyme fitness, log enrichment relative to wild type (log ratio); higher = more active; in vitro selection for triplet polymerase activity
measurement-name: polymerase ribozyme fitness (log ratio)

sequence_change="G47U C101A C104U" recorded_measurement=-2.34
sequence_change="C88U C94U" recorded_measurement=-1.32
sequence_change="U7A G10C G57U C88G" recorded_measurement=-2.78
sequence_change="C115G G128U" recorded_measurement=-5
sequence_change="G52C C53G G120U" recorded_measurement=-2.13
sequence_change="C11U G42A" recorded_measurement=-2.48
sequence_change="A6C C11U G69A A91C" recorded_measurement=-6.12
sequence_change="A18U C114U" recorded_measurement=-3.74
sequence_change="A43U C104U" recorded_measurement=-0.812
sequence_change="A6U C11A C12U A37G G61A" recorded_measurement=-1.24
sequence_change="A50C A90C U133G" recorded_measurement=-1.46
sequence_change="C79A G110A" recorded_measurement=-2.55
sequence_change="A41U G110A" recorded_measurement=-2.6
sequence_change="U92C U106G G135C" recorded_measurement=-3.67
sequence_change="C15G G52U C89G G117C" recorded_measurement=-1.36
sequence_change="U38C U54A G77A U96A G120A" recorded_measurement=-4.19
sequence_change="A24U C40U" recorded_measurement=-6.96
sequence_change="A18C A37U G48A" recorded_measurement=-3.12
sequence_change="C40G U55G U78G" recorded_measurement=-2.04
sequence_change="A37U G61U G120C" recorded_measurement=0.718
sequence_change="C8A G120U" recorded_measurement=0.91
sequence_change="C40U G51U G58A" recorded_measurement=-4.36
sequence_change="U55A C85U" recorded_measurement=-1.1
sequence_change="G69U U81A" recorded_measurement=0.151
sequence_change="C8A C28A C72U C123U" recorded_measurement=-2.54
sequence_change="C40U G52U C62U" recorded_measurement=-1.16
sequence_change="G71A C86A A111C G113C" recorded_measurement=-5.65
sequence_change="A2C G10A C13U G69C" recorded_measurement=-3.6
sequence_change="A37G G117C" recorded_measurement=-2.52
sequence_change="C64G U112A U126C" recorded_measurement=-5.9
sequence_change="C53G C62A C70U U78G" recorded_measurement=-2.63
sequence_change="C11U C13U A18G C56U U109A" recorded_measurement=-4.43
sequence_change="A2G C56A" recorded_measurement=-0.384
sequence_change="C15G C88G G120C" recorded_measurement=-1.47
sequence_change="C86U C102A U112A C114A" recorded_measurement=-4.14
sequence_change="C70G A103U G120A A121C C123U" recorded_measurement=-5.54
sequence_change="U78G A95G U125G" recorded_measurement=-1.07
sequence_change="G61U A83G U112C" recorded_measurement=1.59
sequence_change="A6U A18G G93A" recorded_measurement=-5.43
sequence_change="C56G C70U U96G C101U A111U" recorded_measurement=-5.15
sequence_change="G10U G17A C56A C89G G117A" recorded_measurement=-3.05
sequence_change="C49A G57U G60U G113A" recorded_measurement=-1.65
sequence_change=A118G recorded_measurement=-0.226
sequence_change="A16C C98U G110A C124A" recorded_measurement=-4.72
sequence_change="C22U A50C C102U C124G" recorded_measurement=-5.01
sequence_change="A16U C56A G69U G117U" recorded_measurement=-2.35
sequence_change="G69C C114U" recorded_measurement=-1.95
sequence_change="C12A C40U C89A U125A U130G" recorded_measurement=-5
sequence_change="C3U C34A C73A" recorded_measurement=-2.99
sequence_change="G45U G122A" recorded_measurement=-1.14
sequence_change="G57C C89A G117U A118G U130C G135U" recorded_measurement=-2.49
sequence_change="G45C G60C C79A" recorded_measurement=-1.42
sequence_change="U87A G110C" recorded_measurement=-3.47
sequence_change="G93A U96A" recorded_measurement=-1.69
sequence_change="A95C A108G G110U" recorded_measurement=-4
sequence_change="A27U A29G A83C" recorded_measurement=-2.59
sequence_change="A5C A118U U133A" recorded_measurement=-1.14
sequence_change="C12U C15G G71C G127C" recorded_measurement=-4.84
sequence_change="U7A G63C U81G" recorded_measurement=-4.09
sequence_change="A5C A18G" recorded_measurement=-4.19
sequence_change="C56U C102U" recorded_measurement=-2.28
sequence_change="C28U G52C C56G G120A" recorded_measurement=-2.52
sequence_change="G63U G120U G135U" recorded_measurement=-2.56
sequence_change="C13U C56A U96G" recorded_measurement=-0.637
sequence_change="C8U C12U C101G A121C" recorded_measurement=-0.571
sequence_change="C53U C70A" recorded_measurement=-1.49
sequence_change="G44A A50G C72A C73U G110A" recorded_measurement=-4.26
sequence_change="G10A C11U C28A" recorded_measurement=-4.2
sequence_change="G45A C70G C85A" recorded_measurement=-4.9
sequence_change="C13U G39C G63U U125G U133A" recorded_measurement=-2.15
sequence_change="G71U C82A" recorded_measurement=-1.91
sequence_change="C85G G110C" recorded_measurement=-4.96
sequence_change="U9G C85U" recorded_measurement=-0.222
sequence_change="G44C C94U" recorded_measurement=-1.02
sequence_change="C104U C115A" recorded_measurement=0.0102
sequence_change="G57A C94G" recorded_measurement=-2.36
sequence_change="G107A A108G G120A C124A" recorded_measurement=-3.55
sequence_change=C13A recorded_measurement=-1.61
sequence_change="C8U C15A A66U A118U A121C" recorded_measurement=-0.152
sequence_change="G52C G60U" recorded_measurement=-1.44
sequence_change=A83G recorded_measurement=-0.489
sequence_change="A26G C56U" recorded_measurement=-1.28
sequence_change="G48A C86A" recorded_measurement=-0.909
sequence_change="C11G C13G A50C G110C" recorded_measurement=-5.28
sequence_change="U7A C70U C115A" recorded_measurement=0.524
sequence_change="G17A G69A C102U C114G U131G" recorded_measurement=-6.68
sequence_change="C20U A27G C72A C82U A84G U116C" recorded_measurement=-7.5
sequence_change="G44A G113A" recorded_measurement=-2.35
sequence_change="G47A G58C G113A A121C U125C U131C" recorded_measurement=-0.547
sequence_change="A41U G135U" recorded_measurement=-2.4
sequence_change="C53A A100G G113A G120C" recorded_measurement=-4.41
